testedSystem: Muscarinic acetylcholine receptor M1 (Rattus norvegicus, UniProt P08482)
Sequence (P08482 whole entry): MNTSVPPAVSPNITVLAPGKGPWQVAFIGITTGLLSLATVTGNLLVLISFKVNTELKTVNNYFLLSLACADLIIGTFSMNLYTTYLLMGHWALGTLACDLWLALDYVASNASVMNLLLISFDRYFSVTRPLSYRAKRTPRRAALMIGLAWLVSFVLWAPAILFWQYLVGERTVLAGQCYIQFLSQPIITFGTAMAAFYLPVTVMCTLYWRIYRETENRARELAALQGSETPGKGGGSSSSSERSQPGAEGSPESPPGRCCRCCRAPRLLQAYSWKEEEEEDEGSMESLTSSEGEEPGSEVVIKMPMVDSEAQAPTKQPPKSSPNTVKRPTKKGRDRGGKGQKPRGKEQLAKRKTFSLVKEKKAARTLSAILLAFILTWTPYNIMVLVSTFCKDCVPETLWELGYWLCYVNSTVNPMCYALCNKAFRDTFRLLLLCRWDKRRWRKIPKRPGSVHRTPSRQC
valueType: pKi
Friendly reminder that pKi comes from taking -log10 of the concentration in mol/L.

These recorded examples may help you get a feel for the data.
O=C(Nc1sccc1-c1ccccc1)OC12CCN(CC1)CC2 9.48
C[N+]12CCC(OC(=O)Nc3ncsc3-c3ccc(F)cc3)(CC1)CC2 10.14
C[N+]12CCC(OC(=O)Nc3ncsc3-c3cccc(Cl)c3)(CC1)CC2 10.39
O=C(Nc1ccsc1-c1ccccc1)O[C@@H]1CN2CCC1CC2 8.34

Lab note: next compound to report on.
Q: Which measured pKi value corresponds to O=C(Nc1ccsc1-c1ccccc1)OC12CCN(CC1)CC2 ?
Result: 10.02

---

testedSystem: Muscarinic acetylcholine receptor M1 (Rattus norvegicus)
Sequence (P08482 whole entry): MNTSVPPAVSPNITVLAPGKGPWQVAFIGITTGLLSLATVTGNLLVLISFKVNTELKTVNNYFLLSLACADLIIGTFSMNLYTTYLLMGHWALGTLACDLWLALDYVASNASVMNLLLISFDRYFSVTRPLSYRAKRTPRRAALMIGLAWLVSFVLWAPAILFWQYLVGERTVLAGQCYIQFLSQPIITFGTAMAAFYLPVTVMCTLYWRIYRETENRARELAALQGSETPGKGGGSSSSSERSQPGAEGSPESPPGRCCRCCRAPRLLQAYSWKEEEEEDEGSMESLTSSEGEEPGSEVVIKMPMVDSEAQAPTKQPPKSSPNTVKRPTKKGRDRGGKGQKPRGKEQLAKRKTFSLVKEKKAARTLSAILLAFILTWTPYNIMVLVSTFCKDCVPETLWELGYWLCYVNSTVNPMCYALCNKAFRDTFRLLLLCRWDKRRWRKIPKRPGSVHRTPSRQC
valueType: Ki (pM)
Lab book: enter the figure in pM, no units written.

Q: Which measured Ki value corresponds to C[N+]12CCC(OC(=O)Nc3ncsc3-c3cc(Cl)cc(Cl)c3)(CC1)CC2 ?
Result: 120

---

Values of pKi reported for UniProt P08482 appear below.
Friendly reminder that pKi comes from taking -log10 of the concentration in mol/L.

These recorded examples may help you get a feel for the data.
C[N+]12CCC(OC(=O)Nc3ccsc3-c3ccccc3)(CC1)CC2 10.70
O=C(Nc1cscc1-c1ccccc1)OC12CCN(CC1)CC2 9.29
C[N+]12CCC(CC1)[C@@H](OC(=O)Nc1ncsc1-c1ccccc1)C2 9.43

Lab note: next compound to report on.
Q: Which measured pKi value corresponds to O=C(Nc1ccccc1-c1ccccc1)OC12CCN(CC1)CC2 ?
Result: 9.49
